target: Muscarinic acetylcholine receptor M1 (Homo sapiens); assay: CHRM1 PAMs potentiating acetylcholine calcium signal – CHO-K1 cells, Fluo-8 calcium fluorescence, 1536-well, primary screen (AID 588819); conditions: CHO-K1 hM1, Fluo-8 calcium fluorescence, ACh EC20; at 3 µM; stronger effect = higher value; 0% = ACh EC20, 100% = maximal ACh
The campaign covered roughly 360,000 compounds. About 320 (0.089%) were called active. Only a selection was taken, and actives are over-represented in it overall.
Each entry below carries its reported activation.
MEASURE: activation (%)

| MOLECULE | MEASURE | REPORTED RESULT |
| --- | --- | --- |
| COc1ccc(NC(=O)CN(C)C(=O)CC2CCCCC2)cc1 | activation | 15.3 |
| COc1ccc([N+](=O)[O-])cc1N(CC(O)Cn1nnc2ccccc21)S(=O)(=O)c1ccc(C)cc1 (centres undefined) | activation | 21.8 |
| O=c1[nH]c2ccc(S(=O)(=O)N3CCCC3)cc2[nH]1 | activation | 2.57 |
| Cn1c(SCC(=O)N2CCCCC2)nc2c(c1=O)SCC2 | activation | -5.48 |
| CC(=O)NC(Cc1ccc(F)c(F)c1)C(=O)NC1CCN(c2nnnn2-c2ccccc2)CC1 (centres undefined) | activation | 1.64 |
| COCCn1c(SCC(=O)Nc2ccccc2F)nc2c(c1=O)SCC2 | activation | 7.02 |
| COc1cccc(-c2noc(C3CCCN(C(=O)c4ccc(F)cc4)C3)n2)c1 (centres undefined) | activation | 22.6 |
| CSc1ccc(S(=O)(=O)NCC(=O)OCC(=O)NC2(C#N)CCCCC2)cc1[N+](=O)[O-] | activation | 3.7 |
| CCCCNC(=O)OC(C)CNC(=O)OC (centres undefined) | activation | 4.6 |

----------
biological target: Muscarinic acetylcholine receptor M1 (Homo sapiens) (UniProt P11229); assay: CHRM1 PAMs potentiating acetylcholine calcium signal – CHO-K1 cells, Fluo-8 calcium fluorescence, 1536-well, primary screen (AID 588819); details: CHO-K1 hM1, Fluo-8 calcium fluorescence, ACh EC20; at 3 µM; stronger effect = higher value; 0% = ACh EC20, 100% = maximal ACh
Sequence (P11229 whole entry, looked up): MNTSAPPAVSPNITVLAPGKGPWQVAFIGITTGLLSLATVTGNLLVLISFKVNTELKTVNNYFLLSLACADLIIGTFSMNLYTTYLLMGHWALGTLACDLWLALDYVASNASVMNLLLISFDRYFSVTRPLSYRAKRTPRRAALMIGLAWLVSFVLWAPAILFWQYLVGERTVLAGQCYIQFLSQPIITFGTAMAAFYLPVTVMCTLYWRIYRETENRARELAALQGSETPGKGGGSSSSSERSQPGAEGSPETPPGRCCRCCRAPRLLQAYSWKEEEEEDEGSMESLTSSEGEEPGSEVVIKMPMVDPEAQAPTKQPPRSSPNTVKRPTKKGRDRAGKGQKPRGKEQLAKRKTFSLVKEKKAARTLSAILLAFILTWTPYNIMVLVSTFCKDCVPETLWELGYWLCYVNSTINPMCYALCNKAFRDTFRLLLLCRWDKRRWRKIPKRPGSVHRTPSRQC
About 320 (0.089%) of roughly 360,000 compounds were called active. Only a selection was taken, and actives are over-represented in it overall.
Listed below: activation values for each entry.
MEASURE: activation (%)

| COMPOUND | UNIT DESCRIPTOR | REPORTED RESULT |
| --- | --- | --- |
| CC(NC(=O)C(C)(C)C)C(c1cccs1)N1CCN(Cc2ccccc2)CC1 (stereo unspecified) | % | -8.56 |
| CC(=O)Nc1ccc(NC(=O)C(C)OC(=O)C2CC(=O)N(CCc3ccccc3)C2)cc1 (stereo unspecified) | % | 4.72 |
| O=C(C1CCN(C2CCN(Cc3ccc4cc(F)ccc4n3)CC2)CC1)N1CCCC1 | % | 8.71 |
| CC(OC(=O)c1ccccc1OCc1ccc(Cl)cc1)C(N)=O (stereo unspecified) | % | -0.86 |
| CNC(=O)c1nnc(Cc2ccc(Cl)cc2)o1 | % | 5.02 |
| O=[N+]([O-])c1c(NCCO)cc(Sc2nc3ccccc3s2)c2nonc12 | % | 1.97 |
